MEASURED TARGET: ACAT derived from human macrophage (Homo sapiens)
Construct: Using, as an enzyme source, microsomal fractions prepared in the manner described below under Preparation of Microsome from U937 cells; endogenous in cells; host or cells: U937 cells differentiated with TPA, microsomal fraction
Sequence (P35610 1-550): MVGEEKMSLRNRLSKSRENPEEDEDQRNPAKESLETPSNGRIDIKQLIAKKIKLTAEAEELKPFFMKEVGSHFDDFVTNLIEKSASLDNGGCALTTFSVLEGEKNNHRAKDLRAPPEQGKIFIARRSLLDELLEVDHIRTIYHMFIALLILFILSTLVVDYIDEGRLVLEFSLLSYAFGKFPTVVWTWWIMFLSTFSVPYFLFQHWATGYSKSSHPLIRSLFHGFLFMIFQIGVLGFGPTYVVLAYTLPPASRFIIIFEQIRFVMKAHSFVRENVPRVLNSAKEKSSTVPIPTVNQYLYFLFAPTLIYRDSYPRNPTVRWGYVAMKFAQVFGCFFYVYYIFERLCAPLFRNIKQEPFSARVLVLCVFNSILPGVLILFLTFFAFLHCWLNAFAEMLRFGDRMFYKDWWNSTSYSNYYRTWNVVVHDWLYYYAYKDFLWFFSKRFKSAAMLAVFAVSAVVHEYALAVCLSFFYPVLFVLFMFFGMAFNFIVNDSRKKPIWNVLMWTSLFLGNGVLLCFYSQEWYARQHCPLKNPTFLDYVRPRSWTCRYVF
TEST PROTOCOL: Inhibitory activity against ACAT derived from human macrophage (microsomes of TPA-differentiated U937 cells)
Type: biochemical
PARTICULARS: Table 1; rat liver ACAT IC50 / human macrophage ACAT IC50
PARAMETER: Selectivity

1. CCC=CCC=CCC=CCC=CCC=CCCCC(=O)Nc1c(OC)cc(OC)cc1OC [Compound 1] = 49.6

a = CCC=CCC=CCC=CCC=CCC=CCC=CCCC(=O)Nc1c(CC)cccc1CC [Compound 10]
b = CCC=CCC=CCC=CCC=CCC=CCC=CCCC(=O)Nc1ccc(CNC(=O)Nc2c(C(C)C)cccc2C(C)C)cc1 [Compound 20]
For this pair, a and b , which shows a numerically higher Selectivity? Use the label to indicate which entry you chose.
a

* * *

MEASURED TARGET: ACAT derived from human macrophage (Homo sapiens, UniProt P35610)
Construct: Using, as an enzyme source, microsomal fractions prepared in the manner described below under Preparation of Microsome from U937 cells; endogenous in cells; host or cells: U937 cells differentiated with TPA, microsomal fraction
TEST PROTOCOL: Inhibitory activity against ACAT derived from human macrophage (microsomes of TPA-differentiated U937 cells)
Format: biochemical
PARTICULARS: Table 1; rat liver ACAT IC50 / human macrophage ACAT IC50
PARAMETER: Selectivity

Worked cases, Selectivity given:
1) CCC=CCC=CCC=CCC=CCC=CCC=CCCC(=O)NCCNC(=O)Nc1c(C(C)C)cccc1C(C)C = > 111
2) CCC=CCC=CCC=CCC=CCC=CCCCC(=O)N1CCN(C(=O)Nc2c(C(C)C)cccc2C(C)C)CC1 = > 463
3) CCC=CCC=CCC=CCC=CCC=CCCCC(=O)Nc1ccc(CNC(=O)Nc2c(C(C)C)cccc2C(C)C)cc1 = > 3333

Pending compound:
Which Selectivity value is on record for CCC=CCC=CCC=CCC=CCC=CCC=CCCC(=O)N1CCN(C(=O)Nc2c(C(C)C)cccc2C(C)C)CC1 ?
> 725
